Form field: melting point (one value per entry).

A selection of reference data follows.
>>> assay_result("Cc1[nH]cc2c(=O)n(-c3ccc(Cl)cc3)nc-2c1-c1cccc(NCc2cccnc2)c1")
"284 to 287 °C"
>>> assay_result("CN1CCN(CNc2nc(=O)n(CN3CCN(C)CC3)cc2F)CC1")
"165 to 166 °C"
>>> assay_result("COC(=C1NC(=O)C(=NO)C1=O)c1ccccc1")
"174 °C"

query: Read the entry COC[C@H](C1CC1)n1cc(Cl)nc(Cl)c1=O and write its reported melting point.
result: 110 to 111 °C

query: Read the entry COC1=C(OC)C(=O)C(CCCCCCCCCC(=O)N[C@H](Cc2ccccc2)C(=O)O)=C(C)C1=O and write its reported melting point.
result: 96 to 98 °C
